These measurements were taken from patent US10329324B2.

Reported solubility at 24 h values follow for various molecules
assay: Kinetic solubility determination in PBS; format: physicochemical; details: phosphate buffered saline (PBS 1×), 21 °C, pH 7.4, aqueous buffer, kinetic from dmso stock, PBS 1X pH 7.4, 2.0% DMSO, 24 hour incubation at ambient temperature, read-out: Solubility in aqueous PBS Buffer (1X, pH 7.4)
PROPERTY_MEASURED: solubility at 24 h (µM)

1. CC[C@H](C)[C@H](NC(=O)C(F)(F)C(F)(F)C(=O)O)C(=O)NCC(=O)N1c2ccccc2C[C@H]1C(=O)NCc1nn[nH]n1: 583
2. CC[C@H](C)[C@H](NC(=O)Cc1ccccc1)C(=O)NCC(=O)N1c2ccccc2C[C@H]1C(=O)NCc1nn[nH]n1: 144
3. CC[C@H](C)[C@H](NC(=O)Cc1ccccc1)C(=O)N[C@H](C)C(=O)N1c2ccccc2C[C@H]1C(=O)NCc1nn[nH]n1: 112
4. CC[C@H](C)[C@H](NC(=O)Cc1ccccc1)C(=O)NCC(=O)N1c2ccccc2C[C@H]1C(=O)NCc1c[nH]nn1: 97

* * *

Reported IC50 values follow for various compounds
target: human Granzyme B (hGzmB) (Homo sapiens); construct: purchased Froelich Lab, Northshore University Health Systems Research Institute, Evanston, Ill., USA; assay: Human Granzyme B enzymatic inhibition assay (fluorogenic, kinetic); format: biochemical; conditions: activity codes, Table 7; read-out: IC50 Activity Range
Sequence (P10144 21-247): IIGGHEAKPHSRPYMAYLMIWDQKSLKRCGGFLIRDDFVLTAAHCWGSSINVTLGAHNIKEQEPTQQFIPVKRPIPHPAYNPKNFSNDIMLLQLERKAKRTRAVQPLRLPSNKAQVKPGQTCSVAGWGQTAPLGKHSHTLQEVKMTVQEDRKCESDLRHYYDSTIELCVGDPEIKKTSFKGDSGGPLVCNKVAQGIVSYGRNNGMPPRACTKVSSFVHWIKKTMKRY
PROPERTY_MEASURED: IC50

1) CC[C@H](C)[C@H](NC(=O)C[C@H](N)C(=O)O)C(=O)NCC(=O)N1c2ccccc2C[C@H]1C(=O)NCc1nn[nH]n1: 100 to 1000 nM
2) CC[C@H](C)[C@H](NC(=O)Cc1ccccc1)C(=O)N[C@H](CCC(=O)O)C(=O)N1c2ccccc2C[C@H]1C(=O)NCc1nn[nH]n1: 100 to 1000 nM
3) CC[C@H](C)[C@H](NC(=O)C1CCCCC1C(=O)O)C(=O)NCC(=O)N1c2ccccc2C[C@H]1C(=O)NCc1nn[nH]n1 (single isomer, unassigned) [Example A20-2]: < 100 nM
4) CC[C@H](C)[C@H](NC(=O)Cc1ccccc1)C(=O)NCC(=O)N1c2ccc(NC(=O)OC(C)(C)C)cc2C[C@H]1C(=O)NCc1nn[nH]n1: 100 to 1000 nM
5) C[C@H](O)[C@H](NC(=O)Cc1ccccc1)C(=O)NCC(=O)N1c2ccccc2C[C@H]1C(=O)NCc1nn[nH]n1: > 10000 nM
6) CC[C@H](C)[C@H](NC(=O)CC(C)CC(=O)O)C(=O)NCC(=O)N1c2ccccc2C[C@H]1C(=O)NCc1nn[nH]n1 (single isomer, unassigned) [Example A17-2]: 100 to 1000 nM

* * *

molecular target: human Granzyme B (hGzmB) (Homo sapiens); construct: purchased Froelich Lab, Northshore University Health Systems Research Institute, Evanston, Ill., USA; assay: Human Granzyme B enzymatic inhibition assay (fluorogenic, kinetic); type: biochemical; conditions: activity codes, Table 7; read-out: IC50 Activity Range
pIC50: −log10 of the molar value.
PROPERTY_MEASURED: pIC50

1) CC[C@H](C)[C@H](NC(=O)C(C)(C)CCC(=O)O)C(=O)NCC(=O)N1c2ccccc2C[C@H]1C(=O)NCc1nn[nH]n1: > 7.00
2) CC[C@H](C)[C@H](NC(=O)C1CC1C(=O)O)C(=O)NCC(=O)N1c2ccccc2C[C@H]1C(=O)NCc1nn[nH]n1 (single isomer, unassigned) [Example A26-1]: > 7.00
3) CC[C@H](C)[C@H](NC(=O)Cc1ccccc1)C(=O)NCC(=O)N1c2cc(NC(=O)OC(C)(C)C)ccc2C[C@H]1C(=O)NCc1nn[nH]n1: 6.00 to 7.00
